Tested on: UO-31
Assay: AUC of dose-response viability curve, drug alone (arbitrary (AUC of normalised viability)); higher = less growth inhibition
Conditions: treatment: drug alone; 5 days
Reported AUC of dose-response viability curve values follow for various compounds
Answer using only a numeral; do not append any unit.

O=C1NC(=O)/C(=C/c2ccc3nccc(-c4ccncc4)c3c2)S1 :: 2.45
Cc1cc(Nc2cc(N3CCN(C)CC3)nc(Sc3ccc(NC(=O)C4CC4)cc3)n2)n[nH]1 :: 3.24
O=c1c(O)c(-c2ccc(O)c(O)c2)oc2cc(O)cc(O)c12 [Quercetin (Sophoretin)] :: 3.57

Next up:
*Q* # input compound: `Oc1ccc(-c2nc(-c3ccc(F)cc3)c(-c3ccncc3)[nH]2)cc1` ; wanted: its AUC of dose-response viability curve
*A* 4.47

====

Test system: UO-31
Test: minimum viability across doses, drug + dasatinib, relative to DMSO (fraction); higher = less growth inhibition
Settings: treatment: drug + dasatinib (fixed dose, not stated); 5 days
We label by threshold. Values of minimum viability across doses strictly beneath 0.1 are yes. Values of 0.1 and up are no.

Please review the following examples before continuing.
Cc1cc(C(=O)NOCCO)c(Nc2ccc(I)cc2F)n(C)c1=O [AZD8330] + Cc1nc(Nc2ncc(C(=O)Nc3c(C)cccc3Cl)s2)cc(N2CCN(CCO)CC2)n1 :: yes
CN1C(=O)C(Cc2c[nH]c3ccccc23)NC1=S (configuration not stated) [Necrostatin-1] + Cc1nc(Nc2ncc(C(=O)Nc3c(C)cccc3Cl)s2)cc(N2CCN(CCO)CC2)n1 :: no
CO[C@H]1C[C@H]2CC[C@@H](C)[C@@](O)(O2)C(=O)C(=O)N2CCCC[C@H]2C(=O)O[C@H]([C@H](C)C[C@@H]2CC[C@H](OP(C)(C)=O)[C@H](OC)C2)CC(=O)[C@H](C)/C=C(\C)[C@@H](O)[C@@H](OC)C(=O)[C@H](C)C[C@H](C)/C=C/C=C/C=C/1C (stereo in doubt) [Deforolimus (Ridaforolimus)] + Cc1nc(Nc2ncc(C(=O)Nc3c(C)cccc3Cl)s2)cc(N2CCN(CCO)CC2)n1 :: no
COC(=O)Nc1ccc(-c2nc(N3CCOCC3)c3cnn(C4CCN(Cc5cccnc5)CC4)c3n2)cc1 [WYE-687] + Cc1nc(Nc2ncc(C(=O)Nc3c(C)cccc3Cl)s2)cc(N2CCN(CCO)CC2)n1 :: yes
COc1cc2nccc(Oc3ccc(NC(=O)NC4CC4)c(Cl)c3)c2cc1C(N)=O [E7080 (Lenvatinib)] + Cc1nc(Nc2ncc(C(=O)Nc3c(C)cccc3Cl)s2)cc(N2CCN(CCO)CC2)n1 :: no
O=C1NC(=O)/C(=C/c2ccc3c(c2)OC(F)(F)O3)S1 + Cc1nc(Nc2ncc(C(=O)Nc3c(C)cccc3Cl)s2)cc(N2CCN(CCO)CC2)n1 :: no
FC(F)(F)c1ccc(/C=C/c2nc(COc3ccc(CCCCn4ccnn4)cc3)co2)cc1 [Mubritinib (TAK 165)] + Cc1nc(Nc2ncc(C(=O)Nc3c(C)cccc3Cl)s2)cc(N2CCN(CCO)CC2)n1 :: no
CN(C)Cc1cccc(N/C(=C2\C(=O)Nc3cc(C(=O)N(C)C)ccc32)c2ccccc2)c1 + Cc1nc(Nc2ncc(C(=O)Nc3c(C)cccc3Cl)s2)cc(N2CCN(CCO)CC2)n1 :: yes
CC(C)c1cnn2c(NCc3ccccc3)cc(NCCCCCCN)nc12.Cl [BS-181 HCl] + Cc1nc(Nc2ncc(C(=O)Nc3c(C)cccc3Cl)s2)cc(N2CCN(CCO)CC2)n1 :: no
COCC[n+]1c2c(n(Cc3cnccn3)c1C)C(=O)c1ccccc1C2=O [YM155] + Cc1nc(Nc2ncc(C(=O)Nc3c(C)cccc3Cl)s2)cc(N2CCN(CCO)CC2)n1 :: yes

*Q* Threshold test, minimum viability across doses < 0.1: CC(O)C(=O)O.CC(O)C(=O)O.CN1CCN(c2ccc3nc(-c4c(N)c5c(F)cccc5[nH]c4=O)[nH]c3c2)CC1 [Dovitinib Dilactic acid (TKI258 Dilactic acid)] + Cc1nc(Nc2ncc(C(=O)Nc3c(C)cccc3Cl)s2)cc(N2CCN(CCO)CC2)n1
*A* no

*Q* Threshold test, minimum viability across doses < 0.1: COc1cc2ncnc(Nc3ccc(F)c(Cl)c3)c2cc1NC(=O)/C=C/CN1CCCCC1 + Cc1nc(Nc2ncc(C(=O)Nc3c(C)cccc3Cl)s2)cc(N2CCN(CCO)CC2)n1
*A* yes

*Q* Threshold test, minimum viability across doses < 0.1: Cn1cc(-c2ccc3ncc(Cc4ccc5ncccc5c4)n3n2)cn1 [NVP-BVU972] + Cc1nc(Nc2ncc(C(=O)Nc3c(C)cccc3Cl)s2)cc(N2CCN(CCO)CC2)n1
*A* yes

*Q* Threshold test, minimum viability across doses < 0.1: Cc1ccc(NC(=O)c2cccc(C(C)(C)C#N)c2)cc1Nc1ccc2ncn(C)c(=O)c2c1 [AZ628] + Cc1nc(Nc2ncc(C(=O)Nc3c(C)cccc3Cl)s2)cc(N2CCN(CCO)CC2)n1
*A* yes

*Q* Threshold test, minimum viability across doses < 0.1: COc1cc2c(Oc3ccc(NC(=O)C4(C(=O)Nc5ccc(F)cc5)CC4)cc3F)ccnc2cc1OCCCN1CCOCC1 + Cc1nc(Nc2ncc(C(=O)Nc3c(C)cccc3Cl)s2)cc(N2CCN(CCO)CC2)n1
*A* yes

*Q* Threshold test, minimum viability across doses < 0.1: CCn1c(-c2nonc2N)nc2c(C#CC(C)(C)O)ncc(OC[C@H]3CCCNC3)c21 + Cc1nc(Nc2ncc(C(=O)Nc3c(C)cccc3Cl)s2)cc(N2CCN(CCO)CC2)n1
*A* no

*Q* Threshold test, minimum viability across doses < 0.1: Cc1cc(Nc2cc(N3CCN(C)CC3)nc(Sc3ccc(NC(=O)C4CC4)cc3)n2)n[nH]1 [VX-680 (MK-0457, Tozasertib)] + Cc1nc(Nc2ncc(C(=O)Nc3c(C)cccc3Cl)s2)cc(N2CCN(CCO)CC2)n1
*A* yes
